Listing: composite z-score of selected molecules
assay: probe aLefty2 binding to arrayed compounds – biochemical, biotinylated probe, 635/667 nm fluorescence, primary screen (AID 1094); conditions: small-molecule microarray, higher = more signal;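 note: score merges spot fluorescence near 667 nm with spot signal-to-noise ratio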
Please give the numeric answer without any surrounding text.

Known results for molecules:
| MOLECULE | composite z-score |
| --- | --- |
| COC(=O)[C@]1(Cc2ccccc2)N=C(c2ccc(OCCCO)cc2)O[C@@H]1c1ccccc1CN=[N+]=[N-] | 0.0647 |
| C=C(COC)C(=O)CC[C@@H](OC(=O)c1ccccc1-c1ccccc1C(=O)O)c1ccc(OCCO)cc1 | -0.0341 |
| CC(C)=CCCC(C)=CC(O)C1C=CC2C(=O)NC(=O)C2N1Nc1ccc(Cl)cc1Cl (stereo not given) | 0.17 |
| COC(=O)[C@H](Cc1ccccc1)N1CC2=CCCC=C[C@@H]2[C@H]1[C@H](O)Cc1ccccc1 | -0.0632 |

Give the value of composite z-score reported for the following: CC(=O)OCC1C2CC[C@H]3C(OCc4ccc(F)cc4C(F)(F)F)OC[C@]4(C)[C@H]3C2=C(CN4C(=O)OC(C)(C)C)[C@H](C)C1COC(C)=O (stereo not given in full)
0.054

Annotate the molecule C=CC[C@@]1(C(=O)N(C)C)N=C(c2ccc(OCCCO)cc2)O[C@@H]1c1ccccc1CN=[N+]=[N-] with its measured composite z-score.
0.264

Provide one value: measured composite z-score of NCCCCCCNC(=O)[C@@H]1C[C@@H]2C(=O)N3CCC[C@H]3C(=O)N2[C@@H]1c1cccc(OCCO)c1
0.0686

Let me know recorded composite z-score for C[C@@H]1ON(c2ccc(I)cc2)[C@H](c2cccc(NC(=O)OCC3c4ccccc4-c4ccccc43)c2)[C@H]1C(=O)N1C(=O)OC[C@H]1Cc1ccccc1 , thanks.
0.437

Supply reported composite z-score belonging to this molecule: CN(C)c1ccc(C(O)C2C=CC3C(=O)N(Cc4ccccc4)C(=O)C3N2n2cnnc2)cc1 (stereo not given)
0.123

Give composite z-score for CCCCCC1=C2CNC(Cc3ccccc3)(C(=O)OC)C=C2C(C)C1=O (stereo not given)
0.226

Read the entry CCOC(=O)C[C@H]1[C@H](OC(=O)c2ccccc2-c2ccccc2)[C@@H](NC(=O)c2ccc3ccccc3c2)c2cc(OCCCO)ccc2N1C(=O)Cc1ccc(OC)cc1 and write its reported composite z-score.
-0.281

Using known records, supply composite z-score for O=C1[C@@H]2[C@@H](CC(COc3ccccc3)=C([C@H](O)CCc3ccccc3)[C@@H]2CO)C(=O)N1Cc1ccccc1
-0.176

Check the records and state composite z-score for C=CC[C@]1(C(=O)NCC(O)CO)COC(c2ccc(OCCCO)cc2)=N1 (stereo not given in full)
0.479

* * *

test system: PRMT1 (protein arginine N-methyltransferase 1); assay: small molecules binding arginine methyltransferase PRMT1 – biochemical, small-molecule microarray, 635 nm fluorescence, primary screen (AID 1088); conditions: higher = more signal;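 note: binding of Prmt1 protein to compounds spotted on small-molecule microarray slides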
# composite z-score annotations
Lab note: jot down the number only; don't add units.

Solved entries:
| COMPOUND | PROPERTY NAME | READOUT NUMBER |
| --- | --- | --- |
| CCOC(=O)C[C@H]1[C@H](OC(=O)c2cc3ccccc3oc2=O)[C@@H](NC(=O)CC(C)C)c2cc(OCCCO)ccc2N1C(=O)Cc1ccc(OC)cc1 | composite z-score | 1.14 |
| [N-]=[N+]=NCc1ccccc1[C@@H]1OC(c2ccc(OCCCO)cc2)=N[C@]1(Cc1ccccc1N=[N+]=[N-])C(=O)NCC(O)CO (some centres not stated) | composite z-score | 1.18 |
| CC(C)N1C(=O)c2ccccc2[C@@H](C(=O)NCC(F)(F)F)[C@@H]1c1ccc(CO)cc1 | composite z-score | -0.57 |
| C=CCOC(=O)[C@@H]1[C@H]2C(=O)O[C@H](c3ccccc3)[C@H](c3ccccc3)N2[C@H](c2ccc(OCCOC(=O)[C@H]3C[C@H]4C(=O)NCC(=O)N4[C@H]3c3cccc(OCCO)c3)cc2)[C@@]12C(=O)Nc1ccc(I)cc12 | composite z-score | 1.54 |
| O=C(NCC(O)CO)C1N=C(c2ccc(OCCCO)cc2)N(c2ccccc2)O1 (configuration not stated) | composite z-score | 1.55 |

Give the value of composite z-score reported for the following: CN1C(=O)C2C(C1=O)C1C=C(CCCO)C2C(C2CC2)N1Cc1cccc(OC(F)(F)F)c1 (configuration not stated)
1.34

Using the record for CN(C)CCCNC(=O)[C@@]1(Cc2ccccc2I)c2ccccc2C(=O)N(C2CCCCC2)[C@H]1c1ccc(CO)cc1 , state its measured composite z-score.
1.55

Hello, please tell me recorded composite z-score for this one: C=C(CCCC)C(=O)CC[C@@H](OC(=O)c1ccccc1-c1ccccc1C(=O)O)c1ccccc1OCCO
1.23

Answer with reported composite z-score of O=C1NC(=O)C2C1C=CC(C(O)c1ccc([N+](=O)[O-])cc1)N2Nc1ccccn1 (configuration not stated)
-0.453

Retrieve composite z-score measured for CC(C)C(O)C1C=CC2C(=O)NC(=O)C2N1Nc1ccccn1 (configuration not stated) and print it.
0.522

Using the record for COc1ccc([Si](C)(C)[C@H]2[C@H](CCO)O[C@@]3(C(=O)N(Cc4ccc(NC(=O)[C@H](C)O)cc4)c4ccccc43)[C@@H]2C)cc1 , state its measured composite z-score.
1.58

Consider the compound COCCCNC(=O)[C@@]1(CCS(=O)(=O)c2ccccc2)COC(c2ccc(OCCCO)cc2)=N1 . State its measured composite z-score.
1.36

Data provenance is PubChem BioAssay.
